Numbers sourced from patent US5023265A.

Field: inhibition in vivo at 25 mg/kg. Provide a value for each of the compounds that follow.
- Tested on: Reversed Passive Arthus Reaction (RPAR) in the rat pleural cavity
- procedure.summary: RPAR-Pleural Cavity Assay
- Assay type: in vivo, male rats
- assay.setup: Rattus norvegicus; 25 mg/kg, exudate volume, 4 hours; read-out: RPAR-Pleural Cavity % Inhibition Fluid

Can you share its inhibition in vivo at 25 mg/kg? I mean this compound: `O=C(Nc1ccccc1)c1c(O)n(Cc2ccccc2)c2ncccc12`
76%

Entry `CC(C)n1c(O)c(C(=O)Nc2ccccc2)c2cccnc21` : reported inhibition in vivo at 25 mg/kg = ?
44%

Consider the compound shown here: `O=C(Nc1cccc(C(F)(F)F)c1)c1c(O)n(-c2ccccc2)c2ncccc12` What is its recorded inhibition in vivo at 25 mg/kg?
0%

Give the measured inhibition in vivo at 25 mg/kg of `Cn1c(O)c(C(=O)Nc2ccccc2)c2cccnc21` .
5%

inhibition in vivo at 25 mg/kg lookup needed for `CC(C)(C)NC(=O)c1c(O)n(-c2ccccc2)c2ncccc12` , thanks.
23%

Recorded inhibition in vivo at 25 mg/kg of `Cc1cc(NC(=O)c2c(O)n(-c3ccccc3)c3ncccc23)no1` , please.
0%

Item `CCCCNC(=O)c1c(O)n(-c2ccccc2)c2ncccc12` has what recorded inhibition in vivo at 25 mg/kg?
0%

Request the reported inhibition in vivo at 25 mg/kg associated with `O=C(Nc1ccccc1)c1c(O)n(-c2ccc(Cl)cc2)c2ncccc12`
18%

Param item = `COc1ccc(NC(=O)c2c(O)n(-c3ccccc3)c3ncccc23)cc1` ; retrieve measured inhibition in vivo at 25 mg/kg.
27%

Please report the recorded inhibition in vivo at 25 mg/kg for `O=C(Nc1ccccc1)c1c(O)n(-c2ccccc2)c2ncccc12` .
49%

Requested read-out: inhibition in vivo at 25 mg/kg. Entry: `O=C(O)c1cc(NC(=O)c2c(O)n(-c3ccccc3)c3ncccc23)ccc1O`
0%

May I ask what inhibition in vivo at 25 mg/kg has been recorded for `O=C(NCc1ccccc1)c1c(O)n(-c2ccccc2)c2ncccc12` ?
0%

Would you mind telling me what inhibition in vivo at 25 mg/kg value was observed for `O=C(Nc1ccccc1)c1c(O)n(Cc2ccc(F)cc2)c2ncccc12` ?
46%

Recorded inhibition in vivo at 25 mg/kg for `CC(C)(C)n1c(O)c(C(=O)Nc2ccccc2)c2cccnc21` , please?
26%

Can you look up the measured inhibition in vivo at 25 mg/kg of `O=C(Nc1ccccc1)c1c(O)n(-c2cccc(C(F)(F)F)c2)c2ncccc12` for me?
0%

Entry `CC(C)c1ccc(-n2c(O)c(C(=O)Nc3ccccc3)c3cccnc32)cc1` : reported inhibition in vivo at 25 mg/kg = ?
8%

====

- Test system: cyclooxygenase
- procedure.summary: Rat CO/LO Inhibition: cyclooxygenase metabolite HHT in rat pleural neutrophils
- Type: cell-based, male Wistar-Lewis rats
- assay.setup: 5 M × 10^-5, rat neutrophils
Consider the following compounds; for each one, report its Cyclooxygenese/lipoxygenese % Inhib. HHT.
Numeric only. Scale: %

// map `O=C(Nc1ccc(F)cc1F)c1c(O)n(-c2ccccc2)c2ncccc12` to recorded Cyclooxygenese/lipoxygenese % Inhib. HHT (system: cyclooxygenase)
96

Short answer please: Cyclooxygenese/lipoxygenese % Inhib. HHT, cyclooxygenase, entry `O=C(Nc1ccccc1)c1c(O)n(-c2cccc(C(F)(F)F)c2)c2ncccc12`
56

Field: Cyclooxygenese/lipoxygenese % Inhib. HHT (cyclooxygenase). Entry: `O=C(Nc1ccccc1)c1c(O)n(Cc2ccc(F)cc2)c2ncccc12`
57

Hello, I am looking for reported Cyclooxygenese/lipoxygenese % Inhib. HHT with cyclooxygenase for `O=C(Nc1cccc(C(F)(F)F)c1)c1c(O)n(-c2ccccc2)c2ncccc12` . Could you help?
60

What is its Cyclooxygenese/lipoxygenese % Inhib. HHT for cyclooxygenase? Entry: `Cn1c(O)c(C(=O)Nc2ccccc2)c2cccnc21`
0

Form: Entry = `CCCCNC(=O)c1c(O)n(-c2ccccc2)c2ncccc12` | System = cyclooxygenase | Cyclooxygenese/lipoxygenese % Inhib. HHT = ____
44

Quick check: Cyclooxygenese/lipoxygenese % Inhib. HHT on cyclooxygenase, item `O=C(NCc1ccccc1)c1c(O)n(-c2ccccc2)c2ncccc12` ?
34

# value lookup — system cyclooxygenase, readout Cyclooxygenese/lipoxygenese % Inhib. HHT, item `O=C(Nc1ccccc1)c1c(O)[nH]c2ncccc12`
0

# get_value(readout= Cyclooxygenese/lipoxygenese % Inhib. HHT, system= cyclooxygenase) for `Cc1cc(NC(=O)c2c(O)n(-c3ccccc3)c3ncccc23)no1`
45

Item: `O=C(Nc1ccccc1)c1c(O)n(-c2ccc(Cl)cc2)c2ncccc12` Test system: cyclooxygenase Read-out: Cyclooxygenese/lipoxygenese % Inhib. HHT Value: ?
96

Return Cyclooxygenese/lipoxygenese % Inhib. HHT measured with cyclooxygenase given this compound: `O=C(Nc1ccccc1)c1c(O)n(-c2ccccc2)c2ncccc12`
93

Give Cyclooxygenese/lipoxygenese % Inhib. HHT (cyclooxygenase) of the following compound: `O=C(Nc1ccccn1)c1c(O)n(-c2ccccc2)c2ncccc12`
78

Give cyclooxygenase Cyclooxygenese/lipoxygenese % Inhib. HHT for `O=C(Nc1ccccc1)c1c(O)n(Cc2ccccc2)c2ncccc12`
34
